Data origin: PubChem BioAssay (NCATS)

biological target: Tumor susceptibility gene 101 protein (Homo sapiens); assay: qHTS Assay for Iinhibitors of HIV-1 Budding by Blocking the Interaction of PTAP/TSG101: Hit Validation (AID 651600); settings: PTAP peptide/TSG101 UEV interaction, biochemical assay; series mostly up to 57.5 µM; further: nearly all actives have a fitted effect of over 70% in size
Records with an inconclusive call do not appear. The source made the active and inactive calls. The call rests on the fitted dose curve; in most records, active means well fitted inhibition curve with a large enough effect; inconclusive means small, poorly fitted or top-dose-only effect; inactive means no such curve, though single readings can be large or run the other way.
Outcome codes: 1 for active, 0 for inactive

- molecule: "CCN(CC)c1nc2ccccc2nc1C(C#N)C(=O)NCCc1ccccc1 (stereo not drawn)"
  classification: 1
- molecule: "O=C(NCc1ccc(F)cc1)c1cccc2c1C(=O)c1ccc(N3CCC(Cc4ccccc4)CC3)cc1S2(=O)=O"
  classification: 1
- molecule: "Cc1cccc(N2C(=O)c3cccc4c(N(C)CCO)ccc(c34)C2=O)c1"
  classification: 1
- molecule: "CCCCn1c(=O)[nH]c2nc3cc(N)ccc3nc2c1=O"
  classification: 1
- molecule: "Cc1cc2nc3c(=O)[nH]c(=O)[nH]c3nc2c([N+](=O)[O-])c1N"
  classification: 1
- molecule: "CCN1CCc2c(sc(NC(=O)CSc3ccccc3)c2-c2nc3ccccc3s2)C1"
  classification: 0
- molecule: "O=C(CCl)N1c2ccccc2Oc2ccc3ccccc3c21"
  classification: 0
- molecule: "Cc1c2cc(O)c(=O)cc-2oc2cc(O)c(O)cc12"
  classification: 1
- molecule: "O=c1c(/C=C(\\O)c2ccc(F)cc2)nc2ccccc2n1-c1ccccc1"
  classification: 0
- molecule: "CN1C(=O)c2cccc3c(N)ccc(c23)C1=O"
  classification: 1
- molecule: "O=C1c2cccc3c(O)ccc(c23)C(=O)N1c1ccc(Cl)cc1"
  classification: 1
- molecule: "CC(C)CCN1C(=O)c2cccc3c(N)ccc(c23)C1=O"
  classification: 1
- molecule: "Cc1cc(=O)oc2ccc(OC(=O)CN3C(=O)c4cccc([N+](=O)[O-])c4C3=O)cc12"
  classification: 0
- molecule: "COC(=O)c1cc2c(N)c(C(=O)c3ccc(Cl)cc3)sc2nc1C(OC)OC"
  classification: 0
- molecule: "CCOC(=O)/C(C#N)=C\\c1ccc(N2CCN(C/C=C/c3ccccc3)CC2)cc1"
  classification: 1
- molecule: "CC(=O)Nc1ccc(N2C(=O)c3cccc4c(O)ccc(c34)C2=O)cc1"
  classification: 1
- molecule: "c1ccc(-c2cnn3c(-c4ccccc4)c(-c4ccccc4)nc3n2)cc1"
  classification: 0
- molecule: "CCN(CC)c1ccc(/C=C/C(=O)c2ccc(Br)cc2)cc1"
  classification: 0
- molecule: "Cc1ccc2oc(=O)c(/C=C(\\O)c3ccccc3)nc2c1"
  classification: 0
- molecule: "CC(=O)OCCn1c2nc(=O)[nH]c(=O)c-2nc2cc(C)c(C)cc21"
  classification: 1
- molecule: "O=C(OCCN1C(=O)c2cccc3c(N4CCOCC4)ccc(c23)C1=O)c1cccc(Cl)c1"
  classification: 0
- molecule: "Cc1cc(NS(=O)(=O)c2ccc(NC(=O)COc3c(C)cc(Br)cc3C)cc2)no1"
  classification: 0
- molecule: "Oc1[nH]c2ccc(Br)cc2c1N=Nc1ccc(F)cc1"
  classification: 1
- molecule: "CCN1C(=O)c2cccc3c(N)ccc(c23)C1=O"
  classification: 1
- molecule: "Nc1ccc2cc3[nH]c4cc(N)ccc4c3nc2c1"
  classification: 1
- molecule: "CC1CN(c2nc3ccccc3nc2C(C#N)C(=O)NCc2ccc3c(c2)OCO3)CC(C)O1 (stereo not drawn)"
  classification: 0
- molecule: "CCOC(=O)c1cc2n(c1/N=C/N(C)C)-c1ccccc1C2=O"
  classification: 1
- molecule: "N#CC(C(=O)NCc1ccccc1)c1nc2ccccc2nc1N1CCCC1 (stereo not drawn)"
  classification: 0
- molecule: "COc1ccc(C(=O)Nc2nc(-c3ccc([N+](=O)[O-])cc3)c(-c3ccc(OC)cc3)s2)cc1"
  classification: 0
- molecule: "Cc1ccc[n+](-c2nc([O-])sc2C=O)c1"
  classification: 1
- molecule: "Cc1cc2nc3c(=O)n(C4CCCCC4)c(=O)[nH]c3nc2cc1N"
  classification: 1
- molecule: "O=C(C1=NN(c2ccccc2)C2C(=O)N(c3ccccc3)C(=O)C12)c1ccccc1 (stereo not drawn)"
  classification: 0
- molecule: "Cn1c(/C(C#N)=C/c2ccc(-c3ccc(S(N)(=O)=O)cc3)o2)nc2ccccc21"
  classification: 0
- molecule: "Cc1ccc(C)c2nc3sc(C(=O)N4CCCc5ccccc54)c(N)c3cc12"
  classification: 1
- molecule: "COc1cccc2c1C(=O)c1c(O)c3c(c(O)c1C2=O)CC(O)(C(C)=O)CC3OC1CC(N(C)C)C(O)C(C)O1 (stereo not drawn)"
  classification: 1
- molecule: "Cc1nc(Cl)c2c(n1)NC1=C(O2)C(=O)CCC1"
  classification: 1
- molecule: "CN(N=Nc1ccc([N+](=O)[O-])cc1)c1ccccc1"
  classification: 1
- molecule: "Nc1ccc2nc3c(=O)[nH]c(=S)[nH]c3nc2c1"
  classification: 1
- molecule: "COc1ccc2ccccc2c1C(O)c1nccn1C (stereo not drawn)"
  classification: 1
- molecule: "Cc1ccc(-c2cn3nc(-c4ccccc4)c(-c4ccccc4)nc3n2)cc1"
  classification: 1
- molecule: "Nc1ccc2nc3c(=O)n(C4CCCCC4)c(=O)[nH]c3nc2c1"
  classification: 1
- molecule: "CSC1=NSC2=NC(=O)/C(=C\\c3coc4ccccc4c3=O)C(=N)N12"
  classification: 1
- molecule: "COc1ccccc1NC(=O)/C(C#N)=C/c1cc([N+](=O)[O-])ccc1N1CCCC1"
  classification: 1
